Test system: 292921-168-R-J2-PDC complex spheroid growth
Protocol text: Anticancer human tumor 292921-168-R-J2-PDC patient-derived pancreatic carcinoma cell line growth inhibition [AhR]
Measurement setup: second compound 1 µM; first compound 3 µM; stronger effect = lower value
viability, T/C strictly less than 80% = TRUE. Otherwise FALSE.

Compound	Category label
O=C(C=Cn1cnc(-c2cc(C(F)(F)F)cc(C(F)(F)F)c2)n1)NNc1cnccn1 + Cc1cncc(-c2nc(NCCc3c[nH]c4ccccc34)c3ncn(C(C)C)c3n2)c1	TRUE
CCN(c1cc(-c2ccc(CN3CCOCC3)cc2)cc(C(=O)NCc2c(C)cc(C)[nH]c2=O)c1C)C1CCOCC1 + Cc1ccccc1N=Nc1ccc(NC(=O)c2ccnn2C)c(C)c1	TRUE
CCN(c1cc(-c2ccc(CN3CCOCC3)cc2)cc(C(=O)NCc2c(C)cc(C)[nH]c2=O)c1C)C1CCOCC1 + Cc1cncc(-c2nc(NCCc3c[nH]c4ccccc34)c3ncn(C(C)C)c3n2)c1	TRUE
O=C(C=Cn1cnc(-c2cc(C(F)(F)F)cc(C(F)(F)F)c2)n1)NNc1cnccn1 + Cc1ccccc1N=Nc1ccc(NC(=O)c2ccnn2C)c(C)c1	TRUE
O=C(C=Cn1cnc(-c2cc(C(F)(F)F)cc(C(F)(F)F)c2)n1)NNc1cnccn1 + CC(CO)NC(=O)c1cc(-c2ccc(Cl)cc2)nn(-c2cnn(C)c2)c1=O	TRUE
CCN(c1cc(-c2ccc(CN3CCOCC3)cc2)cc(C(=O)NCc2c(C)cc(C)[nH]c2=O)c1C)C1CCOCC1 + CC(CO)NC(=O)c1cc(-c2ccc(Cl)cc2)nn(-c2cnn(C)c2)c1=O	FALSE

====

Attribute: pIC50
Test system: 292921-168-R-J2-PDC complex spheroid growth
Protocol text: Anticancer human tumor 292921-168-R-J2-PDC cell line growth inhibition [AhR];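 further: spheroids exposed to compounds for seven days after three days of growth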
Measurement setup: curve of first compound; second compound 3.16 µM
pIC50: −log10 of the molar value.

Compound	Measured target	Readout relation	pIC50
CC(C)c1c(-c2ccccc2)nc2c(C#N)c[nH]n2c1=O + Cc1ccccc1N=Nc1ccc(NC(=O)c2ccnn2C)c(C)c1	292921-168-R-J2-PDC complex spheroid growth	<	5.00
Nc1ccccc1NC(=O)c1ccc(CNC(=O)OCc2cccnc2)cc1 + Cc1ccccc1N=Nc1ccc(NC(=O)c2ccnn2C)c(C)c1	292921-168-R-J2-PDC complex spheroid growth	=	6.64
O=C(C=Cn1cnc(-c2cc(C(F)(F)F)cc(C(F)(F)F)c2)n1)NNc1cnccn1 + CC(CO)NC(=O)c1cc(-c2ccc(Cl)cc2)nn(-c2cnn(C)c2)c1=O	292921-168-R-J2-PDC complex spheroid growth	=	7.10
CC1COCCN1c1cc(-c2ccnn2C)c2ccnc(-c3ccn[nH]3)c2n1 (stereo unspecified) + CC(CO)NC(=O)c1cc(-c2ccc(Cl)cc2)nn(-c2cnn(C)c2)c1=O	292921-168-R-J2-PDC complex spheroid growth	=	7.55
COc1cc(C2c3cc4c(cc3C(OC3OC5COC(C)OC5C(O)C3O)C3COC(=O)C23)OCO4)cc(OC)c1O (stereo unspecified) + Cc1cncc(-c2nc(NCCc3c[nH]c4ccccc34)c3ncn(C(C)C)c3n2)c1	292921-168-R-J2-PDC complex spheroid growth	=	6.58
CC1(C)CCC(CN2CCN(c3ccc(C(=O)NS(=O)(=O)c4ccc(NCC5CCOCC5)c([N+](=O)[O-])c4)c(Oc4cnc5[nH]ccc5c4)c3)CC2)=C(c2ccc(Cl)cc2)C1 + Cc1cncc(-c2nc(NCCc3c[nH]c4ccccc34)c3ncn(C(C)C)c3n2)c1	292921-168-R-J2-PDC complex spheroid growth	=	5.25

====

Test system: 292921-168-R-J2-PDC complex spheroid growth
Protocol text: Anticancer human tumor 292921-168-R-J2-PDC cell line growth inhibition [AhR];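 further: spheroids exposed to compounds for seven days after three days of growth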
Measurement setup: curve of first compound; second compound 3.16 µM
pIC50: −log10 of the molar value.

Compound	Measured target	Readout relation	pIC50
CC1COCCN1c1cc(-c2ccnn2C)c2ccnc(-c3ccn[nH]3)c2n1 (configuration not stated) + Cc1ccccc1N=Nc1ccc(NC(=O)c2ccnn2C)c(C)c1	292921-168-R-J2-PDC complex spheroid growth	=	7.70
O=C(c1cc(Cc2n[nH]c(=O)c3ccccc23)ccc1F)N1CCN(C(=O)C2CC2)CC1 + CC(CO)NC(=O)c1cc(-c2ccc(Cl)cc2)nn(-c2cnn(C)c2)c1=O	292921-168-R-J2-PDC complex spheroid growth	<	5.00
O=C(c1cc(Cc2n[nH]c(=O)c3ccccc23)ccc1F)N1CCN(C(=O)C2CC2)CC1 + Cc1cncc(-c2nc(NCCc3c[nH]c4ccccc34)c3ncn(C(C)C)c3n2)c1	292921-168-R-J2-PDC complex spheroid growth	<	5.00
Nc1ccn(C2OC(CO)C(O)C2(F)F)c(=O)n1 (configuration not stated) + Cc1cncc(-c2nc(NCCc3c[nH]c4ccccc34)c3ncn(C(C)C)c3n2)c1	292921-168-R-J2-PDC complex spheroid growth	>	7.50
COc1ccc([C@@H](O)c2cc(-c3ncnc4cc(N5CCOCC5)ccc34)c(F)cc2Cl)nn1 + CC(CO)NC(=O)c1cc(-c2ccc(Cl)cc2)nn(-c2cnn(C)c2)c1=O	292921-168-R-J2-PDC complex spheroid growth	=	5.88
CCN(c1cc(-c2ccc(CN3CCOCC3)cc2)cc(C(=O)NCc2c(C)cc(C)[nH]c2=O)c1C)C1CCOCC1 + Cc1cncc(-c2nc(NCCc3c[nH]c4ccccc34)c3ncn(C(C)C)c3n2)c1	292921-168-R-J2-PDC complex spheroid growth	<	5.52
CCc1c2c(nc3ccc(O)cc13)-c1cc3c(c(=O)n1C2)COC(=O)[C@]3(O)CC + Cc1ccccc1N=Nc1ccc(NC(=O)c2ccnn2C)c(C)c1	292921-168-R-J2-PDC complex spheroid growth	=	8.86
O=C(C=Cc1cccc(S(=O)(=O)Nc2ccccc2)c1)NO + Cc1ccccc1N=Nc1ccc(NC(=O)c2ccnn2C)c(C)c1	292921-168-R-J2-PDC complex spheroid growth	=	6.55
CC(C)CC(NC(=O)C(Cc1ccccc1)NC(=O)c1cnccn1)B(O)O (configuration not stated) + Cc1ccccc1N=Nc1ccc(NC(=O)c2ccnn2C)c(C)c1	292921-168-R-J2-PDC complex spheroid growth	=	8.29
COc1cc(Nc2ncc3c(n2)-c2ccc(Cl)cc2C(c2c(F)cccc2OC)=NC3)ccc1C(=O)O + CC(CO)NC(=O)c1cc(-c2ccc(Cl)cc2)nn(-c2cnn(C)c2)c1=O	292921-168-R-J2-PDC complex spheroid growth	>	7.50
CC1COCCN1c1cc(-c2ccnn2C)c2ccnc(-c3ccn[nH]3)c2n1 (configuration not stated) + Cc1cncc(-c2nc(NCCc3c[nH]c4ccccc34)c3ncn(C(C)C)c3n2)c1	292921-168-R-J2-PDC complex spheroid growth	=	7.49
CC[C@@]1(O)C(=O)OCc2c1cc1n(c2=O)Cc2cc3c(CN(C)C)c(O)ccc3nc2-1 + Cc1ccccc1N=Nc1ccc(NC(=O)c2ccnn2C)c(C)c1	292921-168-R-J2-PDC complex spheroid growth	=	7.86

====

System: 292921-168-R-J2-PDC complex spheroid growth
Protocol text: Anticancer human tumor 292921-168-R-J2-PDC cell line growth inhibition [AhR];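 further: spheroids exposed to compounds for seven days after three days of growth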
Measurement setup: second compound 10 µM; first compound 0.0316 µM; stronger effect = lower value
Source text: Multicellular complex tumor spheroid response to aryl hydrocarbon receptor antagonists in combination with a variety of drugs and investigational agents in selected tumor cell lines […] Compounds. […] If the clinical Cmax for an agent had not been determined, the highest concentration tested was 10 microM (Table 1). […]
Attribute: viability, T/C

Compound	viability, T/C
Cn1ncnc1C1c2n[nH]c(=O)c3cc(F)cc(c23)NC1c1ccc(F)cc1 (stereo not drawn) + CC(CO)NC(=O)c1cc(-c2ccc(Cl)cc2)nn(-c2cnn(C)c2)c1=O	67%
O=C(C=Cc1cccc(S(=O)(=O)Nc2ccccc2)c1)NO + Cc1ccccc1N=Nc1ccc(NC(=O)c2ccnn2C)c(C)c1	44.2%
CC(C)c1c(-c2ccccc2)nc2c(C#N)c[nH]n2c1=O + Cc1cncc(-c2nc(NCCc3c[nH]c4ccccc34)c3ncn(C(C)C)c3n2)c1	51%
O=C(c1cc(Cc2n[nH]c(=O)c3ccccc23)ccc1F)N1CCN(C(=O)C2CC2)CC1 + CC(CO)NC(=O)c1cc(-c2ccc(Cl)cc2)nn(-c2cnn(C)c2)c1=O	67.5%
Nc1ccccc1NC(=O)c1ccc(CNC(=O)OCc2cccnc2)cc1 + CC(CO)NC(=O)c1cc(-c2ccc(Cl)cc2)nn(-c2cnn(C)c2)c1=O	45.9%
O=C(C=Cc1cccc(S(=O)(=O)Nc2ccccc2)c1)NO + Cc1cncc(-c2nc(NCCc3c[nH]c4ccccc34)c3ncn(C(C)C)c3n2)c1	32.9%
Cn1ncnc1C1c2n[nH]c(=O)c3cc(F)cc(c23)NC1c1ccc(F)cc1 (stereo not drawn) + Cc1ccccc1N=Nc1ccc(NC(=O)c2ccnn2C)c(C)c1	53.3%
O=C(C=Cc1cccc(S(=O)(=O)Nc2ccccc2)c1)NO + CC(CO)NC(=O)c1cc(-c2ccc(Cl)cc2)nn(-c2cnn(C)c2)c1=O	50.4%
Cn1ncnc1C1c2n[nH]c(=O)c3cc(F)cc(c23)NC1c1ccc(F)cc1 (stereo not drawn) + Cc1cncc(-c2nc(NCCc3c[nH]c4ccccc34)c3ncn(C(C)C)c3n2)c1	47.7%
CC1(C)CCC(CN2CCN(c3ccc(C(=O)NS(=O)(=O)c4ccc(NCC5CCOCC5)c([N+](=O)[O-])c4)c(Oc4cnc5[nH]ccc5c4)c3)CC2)=C(c2ccc(Cl)cc2)C1 + Cc1ccccc1N=Nc1ccc(NC(=O)c2ccnn2C)c(C)c1	65.4%
COc1cc(C2c3cc4c(cc3C(OC3OC5COC(C)OC5C(O)C3O)C3COC(=O)C23)OCO4)cc(OC)c1O (stereo not drawn) + Cc1cncc(-c2nc(NCCc3c[nH]c4ccccc34)c3ncn(C(C)C)c3n2)c1	46.5%
CC(C)c1c(-c2ccccc2)nc2c(C#N)c[nH]n2c1=O + CC(CO)NC(=O)c1cc(-c2ccc(Cl)cc2)nn(-c2cnn(C)c2)c1=O	69.7%
CC[C@@]1(O)C(=O)OCc2c1cc1n(c2=O)Cc2cc3c(CN(C)C)c(O)ccc3nc2-1 + Cc1ccccc1N=Nc1ccc(NC(=O)c2ccnn2C)c(C)c1	28.9%
CC[C@@]1(O)C(=O)OCc2c1cc1n(c2=O)Cc2cc3c(CN(C)C)c(O)ccc3nc2-1 + Cc1cncc(-c2nc(NCCc3c[nH]c4ccccc34)c3ncn(C(C)C)c3n2)c1	33.4%
Nc1ccn(C2OC(CO)C(O)C2(F)F)c(=O)n1 (stereo not drawn) + Cc1cncc(-c2nc(NCCc3c[nH]c4ccccc34)c3ncn(C(C)C)c3n2)c1	29.8%
NS(=O)(=O)OCC1CC(n2ccc3c(NC4CCc5ccccc54)ncnc32)CC1O (stereo not drawn) + Cc1cncc(-c2nc(NCCc3c[nH]c4ccccc34)c3ncn(C(C)C)c3n2)c1	69.9%
Nc1ncn(C2CC(O)C(CO)O2)c(=O)n1 (stereo not drawn) + CC(CO)NC(=O)c1cc(-c2ccc(Cl)cc2)nn(-c2cnn(C)c2)c1=O	71%
Nc1ncn(C2CC(O)C(CO)O2)c(=O)n1 (stereo not drawn) + Cc1cncc(-c2nc(NCCc3c[nH]c4ccccc34)c3ncn(C(C)C)c3n2)c1	50%
COc1cccc2c1C(=O)c1c(O)c3c(c(O)c1C2=O)CC(O)(C(=O)CO)CC3OC1CC(N)C(O)C(C)O1 (stereo not drawn) + Cc1ccccc1N=Nc1ccc(NC(=O)c2ccnn2C)c(C)c1	17.2%
COc1cc(Nc2ncc3c(n2)-c2ccc(Cl)cc2C(c2c(F)cccc2OC)=NC3)ccc1C(=O)O + CC(CO)NC(=O)c1cc(-c2ccc(Cl)cc2)nn(-c2cnn(C)c2)c1=O	38.5%
COc1cc(Nc2ncc3c(n2)-c2ccc(Cl)cc2C(c2c(F)cccc2OC)=NC3)ccc1C(=O)O + Cc1ccccc1N=Nc1ccc(NC(=O)c2ccnn2C)c(C)c1	34%
CC1(C)CCC(CN2CCN(c3ccc(C(=O)NS(=O)(=O)c4ccc(NCC5CCOCC5)c([N+](=O)[O-])c4)c(Oc4cnc5[nH]ccc5c4)c3)CC2)=C(c2ccc(Cl)cc2)C1 + Cc1cncc(-c2nc(NCCc3c[nH]c4ccccc34)c3ncn(C(C)C)c3n2)c1	54.9%
CC1COCCN1c1cc(C2(S(C)(=N)=O)CC2)nc(-c2ccnc3[nH]ccc23)n1 (stereo not drawn) + Cc1cncc(-c2nc(NCCc3c[nH]c4ccccc34)c3ncn(C(C)C)c3n2)c1	48.6%
